Values compiled from ChEMBL document CHEMBL1144373.

Molecular target: Glutamate [NMDA] receptor
Assay: Mean inhibitory concentration against [3H]MK-801 binding to porcine N-methyl-D-aspartate (NMDA) glutamate receptor; n=3
Format: protein-complex assay, Sus scrofa
pIC50: −log10 of the molar value.
Classify by measured pIC50: Criterion met if it is equal to or exceeds 5, Criterion not met if it is smaller.

smiles-input	class
COc1cc2c(cc1OC)[C@@H](C[C@@H](O)c1ccc(Cl)cc1)N(C)CC2	Criterion not met
COc1cc2c(cc1OC)[C@@H](C[C@H](O)c1ccc(Cl)cc1)N(C)CC2	Criterion not met
COc1cc2c(cc1OC)[C@@H](C[C@H](O)c1ccc(Cl)cc1)NCC2	Criterion not met
COc1ccc([C@@H](O)C[C@@H]2NCCc3cc(OC)c(OC)cc32)cc1	Criterion not met
COc1cc2c(cc1OC)[C@H](C[C@H](O)c1ccc(Cl)cc1)N(C)CC2	Criterion met

Is reported pIC50 greater than or equal to 5 here: `COc1ccc([C@H](O)C[C@H]2NCCc3cc(OC)c(OC)cc32)cc1`
Criterion not met

Say whether `COc1ccc([C@@H](O)C[C@H]2c3cc(OC)c(OC)cc3CCN2C)cc1` shows pIC50 of 5 or more.
Criterion met

// inclusive: pIC50 at least 5? input: `COc1ccc([C@@H](O)C[C@@H]2c3cc(OC)c(OC)cc3CCN2C)cc1`
Criterion not met

In plain terms: is recorded pIC50 at least 5 for `COc1cc2c(cc1OC)[C@H](C[C@@H](O)c1ccc(Cl)cc1)NCC2` ?
Criterion not met
